Cited source for all entries: PubChem BioAssay AID1845207

System: NCI-H1876 tumor spheroid viability
ASSAY METHOD TEXT: Anticancer human tumor NCI-H1876 cell line growth inhibition; active = viability on the fitted dose curve at most 10% of control; inactive = the rest;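 also: spheroids exposed to compounds for seven days before the viability read; percent of DMSO vehicle control viability so 100% = vehicle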
CONDITION SET: second compound 94.9 pM; first compound 3.16 µM; spheroids with HUVEC and MSC
Classes used: 1 for active, 0 for inactive

{"columns": ["COMPOUND", "TEST TARGET", "GROUP"],
 "data": [
  ["CC1COCCN1c1cc(-c2ccnn2C)c2ccnc(-c3ccn[nH]3)c2n1 (stereo unspecified) + COc1cc2c(cc1O)CCNC21CSC2c3c(OC(C)=O)c(C)c4c(c3C(COC1=O)N1C(O)C3Cc5cc(C)c(OC)c(O)c5C(C21)N3C)OCO4", "NCI-H1876 tumor spheroid viability", 1],
  ["Cc1cc(C)c(CNC(=O)c2cc(-c3ccc(CN4CCOCC4)cc3)cc3c2cnn3C2CCCC2)c(=O)[nH]1 + COc1cc2c(cc1O)CCNC21CSC2c3c(OC(C)=O)c(C)c4c(c3C(COC1=O)N1C(O)C3Cc5cc(C)c(OC)c(O)c5C(C21)N3C)OCO4", "NCI-H1876 tumor spheroid viability", 0],
  ["COc1cc(C)[nH]c(=O)c1CN1CCc2c(Cl)cc(C(OC)C3COC3)c(Cl)c2C1=O (stereo unspecified) + COc1cc2c(cc1O)CCNC21CSC2c3c(OC(C)=O)c(C)c4c(c3C(COC1=O)N1C(O)C3Cc5cc(C)c(OC)c(O)c5C(C21)N3C)OCO4", "NCI-H1876 tumor spheroid viability", 0],
  ["[2H]c1nc(C)nc([2H])c1-c1cc(NC[C@@H](C)c2cccc3c(C(=O)NC)ccnc23)ncn1 + COc1cc2c(cc1O)CCNC21CSC2c3c(OC(C)=O)c(C)c4c(c3C(COC1=O)N1C(O)C3Cc5cc(C)c(OC)c(O)c5C(C21)N3C)OCO4", "NCI-H1876 tumor spheroid viability", 0],
  ["CC(C)n1c(=O)n(C)c2cnc3cc(F)c(-c4ccc(OCCCN5CCCCC5)nc4)cc3c21 + COc1cc2c(cc1O)CCNC21CSC2c3c(OC(C)=O)c(C)c4c(c3C(COC1=O)N1C(O)C3Cc5cc(C)c(OC)c(O)c5C(C21)N3C)OCO4", "NCI-H1876 tumor spheroid viability", 0],
  ["COc1ccc([C@@H](O)c2cc(-c3ncnc4cc(N5CCOCC5)ccc34)c(F)cc2Cl)nn1 + COc1cc2c(cc1O)CCNC21CSC2c3c(OC(C)=O)c(C)c4c(c3C(COC1=O)N1C(O)C3Cc5cc(C)c(OC)c(O)c5C(C21)N3C)OCO4", "NCI-H1876 tumor spheroid viability", 0]
]}

----------
Tested on: NCI-H1876 tumor spheroid viability
ASSAY METHOD TEXT: Anticancer human tumor NCI-H1876 cell line growth inhibition;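 also: spheroids exposed to compounds for seven days before the viability read; percent of DMSO vehicle control viability so 100% = vehicle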
CONDITION SET: second compound 0.003 µM; first compound 3 µM; hits give low values; spheroids with HUVEC and MSC
OUTCOME MEASURE: viability, T/C (%)

{"columns": ["MOLECULE", "ASSAY VALUE"],
 "data": [
  ["Cn1ncnc1[C@H]1c2n[nH]c(=O)c3cc(F)cc(c23)N[C@@H]1c1ccc(F)cc1 + COc1cc2c(cc1O)CCNC21CSC2c3c(OC(C)=O)c(C)c4c(c3C(COC1=O)N1C(O)C3Cc5cc(C)c(OC)c(O)c5C(C21)N3C)OCO4", 0.79],
  ["O=C(c1cc(Cc2n[nH]c(=O)c3ccccc23)ccc1F)N1CCN(C(=O)C2CC2)CC1 + COc1cc2c(cc1O)CCNC21CSC2c3c(OC(C)=O)c(C)c4c(c3C(COC1=O)N1C(O)C3Cc5cc(C)c(OC)c(O)c5C(C21)N3C)OCO4", 0.53],
  ["CNCc1ccc(-c2cc(-c3nc(-c4ccc(S(=O)(=O)C(C)C)cc4)cnc3N)on2)cc1 + COc1cc2c(cc1O)CCNC21CSC2c3c(OC(C)=O)c(C)c4c(c3C(COC1=O)N1C(O)C3Cc5cc(C)c(OC)c(O)c5C(C21)N3C)OCO4", 0.8]
]}
